# TARGET OR SYSTEM: Free fatty acid receptor 1 (Mus musculus, UniProt Q76JU9)
# Sequence (Q76JU9 whole entry): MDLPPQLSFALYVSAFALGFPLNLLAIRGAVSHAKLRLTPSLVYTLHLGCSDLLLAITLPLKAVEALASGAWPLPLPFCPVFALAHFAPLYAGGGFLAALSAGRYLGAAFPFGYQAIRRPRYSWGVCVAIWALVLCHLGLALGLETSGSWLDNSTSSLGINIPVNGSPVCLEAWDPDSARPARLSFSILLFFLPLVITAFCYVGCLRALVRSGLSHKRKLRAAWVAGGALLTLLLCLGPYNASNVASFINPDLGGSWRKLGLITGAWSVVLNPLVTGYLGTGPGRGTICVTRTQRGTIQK
# MEASUREMENT NOTES: Agonist activity at mouse GPR40 expressed in HEK293 cells assessed as increase in intracellular calcium level after 5 mins by FLUO-4-AM dye-based FLIPR assay
# Assay type: functional, cell-based
Decision: EC50 beneath 3000 nM gives Y; EC50 meeting or exceeding 3000 nM gives N.

Solved entries:
[
  {
    "LINE NOTATION": "COc1cc(CCC(=O)O)ccc1-c1ccc2c(C)nn(-c3ccccn3)c2c1",
    "GROUP LABEL": "N"
  },
  {
    "LINE NOTATION": "O=C(O)CCc1ccc(-c2cc(F)c3cnn(-c4ccccn4)c3c2)cc1",
    "GROUP LABEL": "Y"
  },
  {
    "LINE NOTATION": "Cc1cc(-c2ccc(CCC(=O)O)cc2)cc2c1cnn2-c1ccccn1",
    "GROUP LABEL": "Y"
  },
  {
    "LINE NOTATION": "CCc1nn(-c2ccccn2)c2cc(-c3ccc(CCC(=O)O)cc3)ccc12",
    "GROUP LABEL": "Y"
  },
  {
    "LINE NOTATION": "N#Cc1cc(-c2ccc(CCC(=O)O)cc2)cc2c1cnn2-c1ccccn1",
    "GROUP LABEL": "N"
  }
]

Please examine the following record next.
**Q:** For this compound, is EC50 lower than 3000 nM? COc1nn(-c2ccc(C)cc2)c2cc(-c3ccc([C@H]4C[C@@H]4C(=O)O)cc3)cc(F)c12
**A:** N

* * *

Reported pEC50 values follow for various molecules
# TARGET OR SYSTEM: Free fatty acid receptor 4 (Homo sapiens)
# Sequence (Q5NUL3 whole entry): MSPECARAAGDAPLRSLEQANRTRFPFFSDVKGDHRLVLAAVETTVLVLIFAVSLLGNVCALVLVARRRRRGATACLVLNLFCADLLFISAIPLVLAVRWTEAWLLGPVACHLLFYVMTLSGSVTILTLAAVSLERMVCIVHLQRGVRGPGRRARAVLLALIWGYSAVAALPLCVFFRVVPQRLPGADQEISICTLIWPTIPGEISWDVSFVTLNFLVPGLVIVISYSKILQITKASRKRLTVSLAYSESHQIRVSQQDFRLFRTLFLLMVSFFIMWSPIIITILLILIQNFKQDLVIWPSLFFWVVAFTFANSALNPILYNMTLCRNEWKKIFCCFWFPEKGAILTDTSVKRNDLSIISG
# MEASUREMENT NOTES: Agonist activity at human GPR120 expressed in CHO-FlpIn cells after 15 mins by DMR assay
Friendly reminder that pEC50 comes from taking -log10 of the concentration in mol/L.

Sample records with pEC50:
[
  {
    "LINE NOTATION": "COc1cc(CCC(=O)O)ccc1-c1ccc2c(C)nn(-c3ccccn3)c2c1",
    "pEC50": 6.14
  },
  {
    "LINE NOTATION": "COc1nn(-c2ccccn2)c2cc(-c3ccc([C@H]4C[C@@H]4C(=O)O)cc3)cc(F)c12",
    "pEC50": 6.29
  },
  {
    "LINE NOTATION": "COc1nn(-c2ccc(C)cc2)c2cc(-c3ccc([C@H]4C[C@@H]4C(=O)O)cc3)cc(F)c12",
    "pEC50": 7.11
  },
  {
    "LINE NOTATION": "N#Cc1cc(-c2ccc(CCC(=O)O)cc2)cc2c1cnn2-c1ccccn1",
    "pEC50": 5.70
  },
  {
    "LINE NOTATION": "O=C(O)CCc1ccc(-c2ccc3cnn(-c4ccccn4)c3c2)cc1",
    "pEC50": 6.00
  },
  {
    "LINE NOTATION": "C[C@@H](Cc1ccc(-c2ccc3cnn(-c4ccccn4)c3c2)cc1)C(=O)O",
    "pEC50": 5.40
  }
]

Could you now consider this next molecule?
**Q:** Find the recorded pEC50 belonging to Cc1nn(-c2ccccn2)c2cc(-c3ccc([C@H]4C[C@@H]4C(=O)O)cc3)ccc12 and report it.
**A:** 6.16
